Reported self-cleavage values for the following variants.
B1: Hairpin Ribozyme (parent)
chain: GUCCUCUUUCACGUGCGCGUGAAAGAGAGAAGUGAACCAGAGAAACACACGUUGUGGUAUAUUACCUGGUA

- Variants of: B1
- protocol details: self-cleavage, relative activity (ratio to wild type); higher = more cleavage; co-transcriptional
reported property: self-cleavage

1) G29A C48U    0.0646
2) A43G U63G    0.11
3) G15A G21C    0.798
4) U2C U8C    0.236
5) A11U G51U    0.805
6) C3U G42U    0.21
7) G57A U70G    0.111
8) U9A G13A    0.471
9) U5G C10G    0.164
10) A28U G40U    0.13
11) C10G A49U    0.21
